Target: UniProtKB O08914
Sequence (O08914 whole entry): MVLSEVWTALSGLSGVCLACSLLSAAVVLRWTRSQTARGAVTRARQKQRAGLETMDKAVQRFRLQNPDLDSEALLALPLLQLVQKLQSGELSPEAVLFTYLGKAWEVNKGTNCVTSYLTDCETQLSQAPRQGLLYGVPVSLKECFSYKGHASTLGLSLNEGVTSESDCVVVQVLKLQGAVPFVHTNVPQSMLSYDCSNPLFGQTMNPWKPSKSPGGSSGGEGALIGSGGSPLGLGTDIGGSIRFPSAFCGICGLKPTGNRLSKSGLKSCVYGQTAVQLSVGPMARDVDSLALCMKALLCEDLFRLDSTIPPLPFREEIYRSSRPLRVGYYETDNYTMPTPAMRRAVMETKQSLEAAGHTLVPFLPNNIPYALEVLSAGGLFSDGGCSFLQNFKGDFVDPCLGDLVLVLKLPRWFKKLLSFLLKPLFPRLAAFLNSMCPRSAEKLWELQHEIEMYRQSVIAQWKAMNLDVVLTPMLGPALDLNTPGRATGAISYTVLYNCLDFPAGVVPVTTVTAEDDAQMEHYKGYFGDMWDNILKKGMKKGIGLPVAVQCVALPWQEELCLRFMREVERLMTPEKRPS
Assay: biochemical
Details: in vitro competitive ABPP
Measurement Name: IC50

molecule="CCn1cc(CN2CC3CN(C(=O)OC(C(F)(F)F)C(F)(F)F)CC3C2)c(-c2cccc(N3CCCCC3)c2)n1 (stereo not drawn)" readout_value="1000 to 10000 nM"
molecule="CC1COCCN1c1cc(Cl)ccc1CN1CC2CN(C(=O)OC(C(F)(F)F)C(F)(F)F)CC2C1 (stereo not drawn)" readout_value="1000 to 10000 nM"
molecule="O=C(ON1C(=O)CCC1=O)N1CC2CN(Cc3ccc(N4CCOCC4)cc3C(F)(F)F)CC2C1 (stereo not drawn)" readout_value="100 to 1000 nM"
molecule="O=C(ON1C(=O)CCC1=O)N1CC2CN(Cc3ccc(N4CCOCC4)cc3F)CC2C1 (stereo not drawn)" readout_value="1000 to 10000 nM"
molecule="CC(=O)N1CCN(c2cccc(CN3CC4CN(C(=O)OC(C(F)(F)F)C(F)(F)F)CC4C3)c2C)CC1 (stereo not drawn)" readout_value="1000 to 10000 nM"
molecule="O=C(OC(C(F)(F)F)C(F)(F)F)N1CC2CN(Cc3cccc(Cl)c3N3CCC(F)CC3)CC2C1 (stereo not drawn)" readout_value="> 10000 nM"
molecule="O=C(OC(C(F)(F)F)C(F)(F)F)N1CC2CN(Cc3cc(CN4CCCCC4)cc(OC(F)(F)F)c3)CC2C1 (stereo not drawn)" readout_value="1000 to 10000 nM"
molecule="CC(=O)NC1CCN(c2ccc(Cl)cc2CN2CC3CN(C(=O)OC(C(F)(F)F)C(F)(F)F)CC3C2)CC1 (stereo not drawn)" readout_value="1000 to 10000 nM"
molecule="CCn1ncc(CN2CC3CN(C(=O)OC(C(F)(F)F)C(F)(F)F)CC3C2)c1C(=O)NCC1CCOCC1 (stereo not drawn)" readout_value="> 10000 nM"
molecule="CC(=O)N1CCN(c2ccc(CN3CC4CN(C(=O)OC(C(F)(F)F)C(F)(F)F)CC4C3)c(F)c2)CC1 (stereo not drawn)" readout_value="1000 to 10000 nM"
molecule="O=C(OC(C(F)(F)F)C(F)(F)F)N1CC2CN(Cc3cc(CN4CCCCC4)ccc3OC(F)(F)F)CC2C1 (stereo not drawn)" readout_value="1000 to 10000 nM"
molecule="CCn1cc(CN2CC3CN(C(=O)OC(C(F)(F)F)C(F)(F)F)CC3C2)c(-c2cccc(N3CCCC3)c2)n1 (stereo not drawn)" readout_value="1000 to 10000 nM"
molecule="O=C(OC(C(F)(F)F)C(F)(F)F)N1CC2CN(Cc3ccc(C(F)(F)F)cc3N3CC4COCC4C3)CC2C1 (stereo not drawn)" readout_value="1000 to 10000 nM"
molecule="Cc1c(CN2CC3CN(C(=O)OC(C(F)(F)F)C(F)(F)F)CC3C2)cccc1N1CCCCC1 (stereo not drawn)" readout_value="1000 to 10000 nM"
molecule="O=C(OC(C(F)(F)F)C(F)(F)F)N1CC2CN(Cc3ccc(Cl)cc3N3CCCC3)CC2C1 (stereo not drawn)" readout_value="1000 to 10000 nM"

---

Molecular target: UniProt O08914
Test: biochemical
Details: in vitro competitive ABPP
Below, each entry is listed alongside its reported IC50.
Measurement Name: IC50

molecule="O=C(OC(C(F)(F)F)C(F)(F)F)N1CC2CN(Cc3cccc(Cl)c3N3CCC4(CCOCC4)C3)CC2C1 (stereo not shown)" readout_value="> 10000 nM"
molecule="CC(C)n1cc(CN2CC3CN(C(=O)OC(C(F)(F)F)C(F)(F)F)CC3C2)c(C2CCN(S(C)(=O)=O)CC2)n1 (stereo not shown)" readout_value="> 10000 nM"
molecule="Cn1nc(-c2ccccc2)cc1CN1CC2CN(C(=O)OC(C(F)(F)F)C(F)(F)F)CC2C1 (stereo not shown)" readout_value="1000 to 10000 nM"
molecule="Cn1cc(CN2CC3CN(C(=O)OC(C(F)(F)F)C(F)(F)F)CC3C2)c(-c2ccccc2Cl)n1 (stereo not shown)" readout_value="> 10000 nM"
molecule="Cc1c(CN2CC3CN(C(=O)ON4C(=O)CCC4=O)CC3C2)cccc1N1CCCCC1 (stereo not shown)" readout_value="100 to 1000 nM"
molecule="CCc1cc(CN2CC3CN(C(=O)OC(C(F)(F)F)C(F)(F)F)CC3C2)n(C2CCOCC2)n1 (stereo not shown)" readout_value="1000 to 10000 nM"
molecule="CCn1cc(CN2CC3CN(C(=O)OC(C(F)(F)F)C(F)(F)F)CC3C2)c(-c2ccccc2N2CCC2)n1 (stereo not shown)" readout_value="> 10000 nM"
